Values from paper PMC9961948

target: cytochrome c oxidase (CcO) purified from heart mitochondria (Bos taurus, UniProt P00396+P07471+P68530); construct: Cytochrome c oxidase was purified from the heart mitochondria of Bos taurus; from tissue; host or cells: bovine heart mitochondria; experiment: Cytochrome oxidase activity of solubilized mitochondrial CcO (oxygen uptake); format: biochemical; conditions: solubilized bovine heart CcO 20 nM; oxygen uptake, Clark electrode, 25 °C; BM 50 mM Hepes/Tris pH 7.6, 50 mM KCl, 1 mM (0.05%) DM; 5 mM ascorbate, 0.1 mM TMPD, 10 μM cytochrome c; fit by Equation (1); read-out: Inhibition of CcO, Solubilized, Ki(app)
test readout: Ki (mM)
Form entry: value (mM) — number only.

Look at this substance and give its reported Ki. Ac-STKLWEMLVELGNMDKAVKLWRKLSR-NH2 [A4]
0.0223
